Molecular target: HLA-A*02:01 (Homo sapiens, UniProt P04439, D140Y/D185E/D98H/E176V/E277Q/G131W/G231S/I119V/I121R/I166T/I218V/L300P/L318F/N151K/N90K/P208A/P217A/Q86G/Q94H/R138H/R169H/T345S)
Assay: MHC binding assay: UV-ligand exchange with beta2m ELISA (peptide exchange yield)
Conditions: binding to HLA-A*02:01
measure: Peptide exchange (MHC class I binding score, peptide exchange yield)

substance | assay.value
201 (RLVDYLEGI; listed as Homo sapiens) [compound 201] | “+++” (≥50 = +++)
24 (SLSDGLEEV; listed as Homo sapiens) [compound 24] | “++” (≥20% = ++)
117 (ILPDGEDFLAV; listed as Homo sapiens) [compound 117] | “+++” (≥50 = +++)
14 (AAYGGLNEKSFV; listed as Homo sapiens) [compound 14] | “+++” (≥50 = +++)
4 (GIMEHITKI; listed as Homo sapiens) [compound 4] | “++++” (≥75% = ++++)
59 (IMEDIILTL; listed as Homo sapiens) [compound 59] | “+++” (≥50 = +++)
277 (LLPPLESLATV; listed as Homo sapiens) [compound 277] | “++” (≥20% = ++)
362 (TLYGLSVLL; listed as Homo sapiens) [compound 362] | “+++” (≥50 = +++)
367 (SLQNHNHQL; listed as Homo sapiens) [compound 367] | “+++” (≥50 = +++)
351 (SLIPNLRNV; listed as Homo sapiens) [compound 351] | “+++” (≥50 = +++)

Query: Peptide exchange (MHC class I binding score, peptide exchange yield); subject: 100 (YLLSTNAQL; listed as Homo sapiens) [compound 100]
“++++” (≥75% = ++++)

Query: Peptide exchange (MHC class I binding score, peptide exchange yield); subject: 298 (VMITKLVEV; listed as Homo sapiens) [compound 298]
“+++” (≥50 = +++)

Query: Peptide exchange (MHC class I binding score, peptide exchange yield); subject: 543 (GLLPTPITQQASL; listed as Homo sapiens) [compound 543]
“+++” (≥50 = +++)

Values from patent US10464978B2
